This collection of values is drawn from PubChem BioAssay (NCATS).

- assay.method.text: qHTS of pediatric cancer cell lines to identify multiple opportunities for drug repurposing: Confirmatory screen for MG 63 (6-TG R) cells (AID 1347119); note: nearly all actives have a fitted effect of over 55% in size
- test.context: MG-63 (6-TG resistant) osteosarcoma viability; series mostly up to 45.9 µM
- Method: Drug repurposing or repositioning has been offered as a strategy for drug development in oncology programs. […] [1] Shen, M et al. Quantitative high-throughput phenotypic screening of pediatric cancer cell lines identifies multiple opportunities for drug repurposing. […] Cells were assayed in growth media at a density of 500-1,000 cells/well. […] After a 15 min incubation at room temperature, samples were analyzed for luminescence intensity using a ViewLux High-throughput CCD imager equipped with clear filters.
Records with an inconclusive call do not appear. Activity calls are given as the source filed them. Calls come from the whole dose curve; as a rule, active = well fitted cell-killing curve with a large enough effect; inconclusive = small, poorly fitted or top-dose-only effect, or effect the other way; inactive = no such curve, though single readings can be large or run the other way.
Your response should consist of one outcome taken from label 1 = active, label 0 = inactive

Some entries whose results are on file:
compound	assigned.class
COC[C@@H](NC(C)=O)C(=O)NCc1ccccc1	label 0
O=P1(NCCCl)OCCCN1CCCl (centres undefined)	label 0
C=C(C)[C@H]1Cc2c(ccc3c2O[C@@H]2COc4cc(OC)c(OC)cc4[C@@H]2C3=O)O1	label 1

# next compound below
Please let me know the test result on file for C[C@@H]1[C@@H](CC(C[C@H]2O[C@@H]3O[C@]4(C)CC[C@@H]5[C@H](C)CC[C@@H]([C@H]2C)[C@@]35OO4)C[S+](=O)([O-])c2ccc(COC(=O)N(C)C)cc2)O[C@@H]2O[C@]3(C)CC[C@H]4[C@H](C)CC[C@@H]1[C@@]24OO3 (some centres undefined) .
label 1
